Biological target: T1, 4H3120-AA
T1 chain: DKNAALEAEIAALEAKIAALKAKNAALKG
Assay: two-hybrid library CCmax;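 note: natural log of median RNA to DNA barcode read ratio; higher means stronger binding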
Conditions: mean of both orientations
Measure name: interaction score

Solved entries:
Query block: # lookup: interaction score of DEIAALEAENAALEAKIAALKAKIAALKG [4H174-AA]
Result block: -0.846

Query block: Please do the same for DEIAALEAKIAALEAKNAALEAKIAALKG [4H310-AA] as well.
Result block: -1.43

A: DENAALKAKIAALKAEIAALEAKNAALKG [4H1864-AA]
B: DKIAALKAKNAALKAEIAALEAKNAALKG [4H3016-AA]
C: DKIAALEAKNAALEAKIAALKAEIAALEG [4H2473-AA]
Query block: Thanks in advance: please rank these 3 entries by interaction score, highest to lowest. Order the labels as requested and list them.
Result block: A, C, B

The reported measurements were obtained from paper PMC10397247.
